# System: NCI60 tumor cell line panel
# protocolDetails: NCI60 five-dose screen, mean over panel
# Type: cell-based, human
# protocolConditions: five dose; mean over 52 human tumor cell lines common to all analogues; read-out: mean GI50
So basically, if GI50 comes in under 900 nM it's Satisfied, and if it's 900 nM or more it's Not satisfied.

Below, 2 compounds whose answers are already recorded.
- compound: "COC(=O)c1c2c(c(C)[n+]([O-])c1C)C(=O)C(NCc1ccc(O)cc1)=CC2=O [Compound 20]"
  group: "Not satisfied"
- compound: "COC(=O)c1c2c(c(C)[n+]([O-])c1C)C(=O)C=C(NCc1ccc(F)cc1)C2=O [Compound 5]"
  group: "Satisfied"

IN: is_below(GI50, 900 nM) for COC(=O)c1c2c(c(C)[n+]([O-])c1C)C(=O)C(NCc1cccc(Cl)c1)=CC2=O [Compound 12] ?
OUT: Not satisfied

IN: Entry to check: COC(=O)c1c2c(c(C)[n+]([O-])c1C)C(=O)C(NCc1ccc(F)c(F)c1)=CC2=O [Compound 16]
OUT: Not satisfied

IN: Entry to check: COC(=O)c1c2c(c[n+]([O-])c1C)C(=O)C(NCc1ccccc1)=CC2=O [Compound 24]
OUT: Satisfied

IN: Entry to check: COC(=O)c1c2c(c(C)[n+]([O-])c1C)C(=O)C(NCc1ccc(F)c(Cl)c1)=CC2=O [Compound 18]
OUT: Not satisfied

* * *

Attribute: GI50
# Test system: NCI-H460
# protocolDetails: SRB cell growth inhibition assay
# Assay type: cell-based
# protocolConditions: Homo sapiens, 48 h, NSCLC sensitive, mean ± SEM
// note: answer is a bare numeric in nM

- molecule: "COc1cccc2c1C(=O)c1c(O)c3c(c(O)c1C2=O)C[C@@](O)(C(=O)CO)C[C@@H]3O[C@H]1C[C@H](N)[C@H](O)[C@H](C)O1 [doxorubicin, reference compound]"
  unitLabel: "nM"
  valueMeasured: 30

IN: Can you look up the measured GI50 of COC(=O)c1c2c(c[n+]([O-])c1C)C(=O)C=CC2=O for me?
OUT: 38000

IN: Entry to check: COC(=O)c1c2c(c(C)[n+]([O-])c1C)C(=O)C(NCc1ccc(F)cc1)=CC2=O
OUT: 2700

IN: Entry to check: COC(=O)c1c2c(c(C)[n+]([O-])c1C)C(=O)C=C(NCc1ccccc1)C2=O
OUT: 1430

IN: Entry to check: COC(=O)c1c2c(c(C)[n+]([O-])c1C)C(=O)C(NCc1ccccc1)=CC2=O
OUT: 3060

IN: Entry to check: COC(=O)c1c2c(c[n+]([O-])c1C)C(=O)C=C(NCc1ccccc1)C2=O
OUT: 350

IN: Entry to check: COC(=O)c1c2c(c(C)[n+]([O-])c1C)C(=O)C=CC2=O
OUT: 8430

IN: Entry to check: COC(=O)c1c2c(c(C)[n+]([O-])c1C)C(=O)C(NCc1ccc(O)cc1)=CC2=O
OUT: 6020

IN: Entry to check: COC(=O)c1c2c(c[n+]([O-])c1C)C(=O)C(NCc1ccccc1)=CC2=O
OUT: 750

IN: Entry to check: COC(=O)c1c2c(c(C)[n+]([O-])c1C)C(=O)C=C(NCc1ccc(F)cc1)C2=O
OUT: 560

Each recorded value in this set is attributed to paper PMC11345829.
